Source: ChEMBL document CHEMBL3991601

Experimental System: Serine/threonine-protein kinase D2 (Homo sapiens, UniProt Q9BZL6); note: in the data inactive means no Kd found up to 30 µM
Sequence (Q9BZL6 whole entry): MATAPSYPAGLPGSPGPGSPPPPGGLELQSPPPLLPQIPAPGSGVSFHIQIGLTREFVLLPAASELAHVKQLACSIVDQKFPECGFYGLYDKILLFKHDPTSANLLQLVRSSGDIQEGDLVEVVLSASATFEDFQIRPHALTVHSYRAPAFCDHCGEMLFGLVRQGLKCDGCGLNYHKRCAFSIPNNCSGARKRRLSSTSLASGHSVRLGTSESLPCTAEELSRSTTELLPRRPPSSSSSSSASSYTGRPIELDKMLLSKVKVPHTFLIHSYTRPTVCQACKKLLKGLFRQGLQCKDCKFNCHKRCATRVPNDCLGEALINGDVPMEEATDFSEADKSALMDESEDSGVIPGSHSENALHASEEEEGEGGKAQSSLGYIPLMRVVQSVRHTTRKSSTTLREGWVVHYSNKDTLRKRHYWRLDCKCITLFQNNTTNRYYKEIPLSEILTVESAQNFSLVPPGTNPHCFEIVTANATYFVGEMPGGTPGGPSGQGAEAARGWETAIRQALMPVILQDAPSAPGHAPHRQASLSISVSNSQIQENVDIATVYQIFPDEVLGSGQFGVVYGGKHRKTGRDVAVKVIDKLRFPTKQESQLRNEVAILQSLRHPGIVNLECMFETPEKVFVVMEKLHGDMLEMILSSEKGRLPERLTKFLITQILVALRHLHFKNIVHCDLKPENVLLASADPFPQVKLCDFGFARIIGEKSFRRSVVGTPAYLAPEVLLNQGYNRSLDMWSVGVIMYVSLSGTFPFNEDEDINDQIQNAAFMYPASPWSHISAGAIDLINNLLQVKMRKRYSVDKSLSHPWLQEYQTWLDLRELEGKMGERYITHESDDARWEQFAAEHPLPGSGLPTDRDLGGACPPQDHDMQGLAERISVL
The source made the active and inactive calls.
Classes used: active, inactive

> print(dat)
                                    compound  class.label
 1  FC(F)(F)c1ccc(CNc2ccc(Cc3c[nH]c4ncc(Cl)cc34)cn2)cn1     inactive
 2  CC1(COc2ccc3c(c2)ncn3-c2ccc3cccc(N4CCC(N)CC4)c3n2)COC1     inactive
 3  O=S(=O)(c1cccc2c(O)nccc12)N1CCCNCC1 [HYDROXYFASUDIL]       active
 4  O=C(NOC[C@H](O)CO)c1ccc(F)c(F)c1Nc1ccc(I)cc1F     inactive
 5  CCc1cc2c(cc1N1CCC(N3CCOCC3)CC1)C(C)(C)c1[nH]c3cc(C#N)ccc3c1C2=O     inactive
 6  CCN(CCCOc1ccc2c(Nc3cc(CC(=O)Nc4cccc(F)c4)n[nH]3)ncnc2c1)CCOP(=O)(O)O     inactive
 7  S=C(NCc1ccc2c(c1)OCO2)N1CCN(c2ncnc3c2oc2ccccc23)CC1     inactive
 8  CN1CCN(c2nc(C3=C(c4c[nH]c5ccccc45)C(=O)NC3=O)c3ccccc3n2)CC1     inactive
 9          COc1cc2ncnc(Nc3ccc(O)cc3)c2cc1OC     inactive
10  COc1cccc2cc(-c3nc([C@H]4CC[C@H](C(=O)O)CC4)n4ncnc(N)c34)[nH]c12     inactive
11  COc1cc2nccc(Oc3ccc(NC(=O)C4(C(=O)Nc5ccc(F)cc5)CC4)cc3)c2cc1OC [CABOZANTINIB]     inactive
12  NC(=O)c1ccc(N(C(N)=O)c2c(F)cccc2F)nc1-c1ccc(F)cc1F     inactive
13  O=C(Nc1ccc(OC(F)(F)F)cc1)c1sccc1NCc1ccnc2ccccc12     inactive
14  Cn1c(=O)n(-c2ccc(C(C)(C)C#N)cc2)c2c3cc(-c4cnc5ccccc5c4)ccc3ncc21     inactive
15  Cc1cc(C(=O)Nc2cc(Oc3ccc4nc(NC(=O)C5CC5)cn4n3)ccc2C)n(C)n1     inactive
16  NC[C@@](O)(c1ccc(Cl)cc1)c1ccc(-c2cn[nH]c2)cc1     inactive
17  Cc1c(NC(=O)OC[C@@H]2COCCN2)cn2ncnc(Nc3ccc4c(cnn4Cc4cccc(F)c4)c3)c12     inactive
